Hi there, I'd appreciate the recorded Kd for every entry that follows.
# TARGET OF ASSAY: RSV prefusion F (preF), subtype A (respiratory syncytial virus, subtype A, UniProt P03420 26-513)
# TEST PROTOCOL: BLI, IgG
The response must be a number in nM with no trailing unit.

Lookup result for ADI-21035 (antibody, V domains shown) VH: EVQLVESGHEVKKPGASVKVSCKASGYTFPSYGISWVRQAPGQGLEWMGWIVPYNGNTKYAQRFQGRITMTTDSPTSTASMELRGLRSDDTAVYYCARVFGDGYSYGYEYWGQGTLVTVSS VL: DIVLTQSPSTLSASVGDRVTITCRASQSISIWLAWYQQKPGKAPKLLIYKTSELVSGVPSRFSGSGSGTEFTLTISGLQPDDFATYYCQQGNSYSHTFGQGTKVEIK ; measured Kd: 10.3

Sure, the documented Kd for ADI-21023 (antibody, V domains shown) VH: EVQLVESGGGLVKPGGSLRLSCAASGFRFSSYGMHWVRQAPGRGLEWVSSITAGSSYMDYADSVKGRFSISRDNAKTSLYLQMNSLRAEDTAIYYCARENYDTGRGLNWFDPWGQGTLVTVSS VL: QSVVTQPPSVSGAPGQRVTISCTGSSSNIGAGYDVHWYRQLPGTAPEVLIYGNNNRPSGVPDRFSGSKTGTSASLAITGLLAEDGADYYCQSYDRSQLWVFGGGTQLTVP is 0.264

Form: binder = ADI-14394 (antibody, V domains shown, also called Ab 61) VH: EVQLLESGGGLVKPGGSLRLSCAASGFTFSSYSMNWVRQAPGKGLEWVSSISSSSSYIYYADSVKGRFTISRDNAKNSLYLQMNSLRAEDTAVYYCARGSEYYFDYWGQGTLVTVSS VL: QSVLTQPPSVSGAPGQRVTISCTGSSSNIGAGYDVHWYQQLPGTAPKLLIYGNSNRPSGVPDRFSGSKSGTSASLAITGLQAEDEADYYCQSYDSSLSVVFGGGTKVTVL ; Kd = 11.5

Data point: ADI-20991 (antibody, V domains shown) VH: EVQLVESGGNLVKPGGSLRLSCAASGFTFSGYYMSWIRQAPGKGLEWISDISGGSSYTNYADSVKGRFTISRDNAKNSLYLQMNSLRAEDTAMYYCARVEYDTTGPFHFDYWGQGTLVTVSS VL: QPVLTQPPSVSGAPGQRVTISCTGSSSNIGAGYDVHWYQQLPGTAPKLLIYGNNNRPSGVPDRLSGSKSGTSASLAITGLQAEDEADYYCQSYDSSLSGYVFGTGTKVTVL ; Kd = 0.234

Kd recorded for this binder, ADI-14415 (antibody, V domains shown, also called Ab 81) VH: EVQLVESGPGLVKPSETLSLTCTVSGGSISNYYWTWIRQPPGEGLEWIGYIYYTGSTNYNPSLKNRVTISVDTPKNQFSLKLNSVTAADTAVYYCARGWGYSYGYESYYNGLDVWGQGTTVTVSS VL: DIQLTQSPSFLSASVGDRVTITCRASQGISSYLAWYQLKPGKAPKLLIYAAATLETGVPSRFSGSGSGTEFTLTISGLQPEDFATYYCQQLNSFPFTFGPGTKVEIK , is 4.2
